Test system: UACC-257 melanoma
Experiment: NCI tumour cell line growth inhibition, 48 h
assayEndpoint: TGI

[[record]]
molecule = "C=CCc1ccc(O)c(-c2cc(C3Oc4c(-c5cc(CC=C)ccc5O)cc(O)cc4[C@@H]3CO)ccc2O)c1 (some centres not stated)"
systemtested = "UACC-257 melanoma"
assayendpoint = "TGI"
result = "> 100 µM"

[[record]]
molecule = "O=[N+]([O-])c1ccc(N=NN2CCCC2)cc1"
systemtested = "UACC-257 melanoma"
assayendpoint = "TGI"
result = "> 100 µM"

[[record]]
molecule = "CCOC(CCCN1CCC2(CC1)C(=O)N(C)CN2c1ccccc1)(OCC)c1ccc(F)cc1"
systemtested = "UACC-257 melanoma"
assayendpoint = "TGI"
result = "18.5 µM"

[[record]]
molecule = "CC(=O)c1cccc(NCn2nnc3ccccc32)c1"
systemtested = "UACC-257 melanoma"
assayendpoint = "TGI"
result = "> 100 µM"

[[record]]
molecule = "Cc1cccc(C(C)(C)C)c1NC(=O)C(=O)C(c1cnc2ccccc2n1)[N+](=O)[O-] (configuration not stated)"
systemtested = "UACC-257 melanoma"
assayendpoint = "TGI"
result = "> 100 µM"

[[record]]
molecule = "O=C1N[C@@H]([C@H](CCCCCO)OC(=O)c2ccccc2)CO1"
systemtested = "UACC-257 melanoma"
assayendpoint = "TGI"
result = "> 100 µM"

[[record]]
molecule = "COC(=O)C(=O)C(C(=O)C=C(C)C)C(=O)C(=O)Nc1cccc(C(C)=O)c1 (configuration not stated)"
systemtested = "UACC-257 melanoma"
assayendpoint = "TGI"
result = "> 100 µM"

[[record]]
molecule = "CN(C)c1ccc(C(N)=O)cn1"
systemtested = "UACC-257 melanoma"
assayendpoint = "TGI"
result = "> 100 µM"

[[record]]
molecule = "CSCC[C@H]1C(=O)N=C(N)N1C(=O)OCc1ccccc1"
systemtested = "UACC-257 melanoma"
assayendpoint = "TGI"
result = "> 100 µM"

[[record]]
molecule = "C=C(Br)CN(CC(=C)Br)C(C)=O"
systemtested = "UACC-257 melanoma"
assayendpoint = "TGI"
result = "> 100 µM"

[[record]]
molecule = "Cc1ccc(C(=O)C#Cc2cn(C3CC(O)C(CO)O3)c(=O)[nH]c2=O)cc1 (configuration not stated)"
systemtested = "UACC-257 melanoma"
assayendpoint = "TGI"
result = "> 100 µM"

[[record]]
molecule = "Cn1cc(-c2ccc(CNc3cc(-c4cnc5cc(OCCCN6CCCC6)ccn45)ncn3)cc2)cn1"
systemtested = "UACC-257 melanoma"
assayendpoint = "TGI"
result = "5.5 µM"

[[record]]
molecule = "Clc1ccc(CN2COc3c(cc(Cl)c4cccnc34)C2)cc1"
systemtested = "UACC-257 melanoma"
assayendpoint = "TGI"
result = "9.13 µM"

[[record]]
molecule = "COC(=O)[C@]1(C)CCC[C@@]2(C)C1CCC1=C[C@@]3(C(C)C)CC[C@]12OO3 (some centres not stated)"
systemtested = "UACC-257 melanoma"
assayendpoint = "TGI"
result = "> 100 µM"

[[record]]
molecule = "CN(C)C(=C1c2cc([N+](=O)[O-])ccc2-c2ccc([N+](=O)[O-])cc21)N(C)C"
systemtested = "UACC-257 melanoma"
assayendpoint = "TGI"
result = "> 100 µM"

[[record]]
molecule = "O=C(O)c1cc2c(s1)C(=O)c1sccc1C2=O"
systemtested = "UACC-257 melanoma"
assayendpoint = "TGI"
result = "6.27 µM"

[[record]]
molecule = "CCOC(=O)/C(C#N)=C1\\N[C@H](C(=O)OCC)CO1"
systemtested = "UACC-257 melanoma"
assayendpoint = "TGI"
result = "> 100 µM"

[[record]]
molecule = "O=C1C(=O)N(C2C3CC4CC(C3)CC2C4)C(=O)C(=O)C1c1nc2ccccc2o1 (configuration not stated)"
systemtested = "UACC-257 melanoma"
assayendpoint = "TGI"
result = "> 100 µM"

[[record]]
molecule = "COc1ccccc1-c1c(C)nn2c(NCc3ccccn3)cc(C)nc12"
systemtested = "UACC-257 melanoma"
assayendpoint = "TGI"
result = "> 50 µM"

[[record]]
molecule = "Clc1ncnc2c1nc(C#Cc1ccccc1)n2Cc1ccccc1"
systemtested = "UACC-257 melanoma"
assayendpoint = "TGI"
result = "74.7 µM"

[[record]]
molecule = "O=C(Nc1ccc([N+](=O)[O-])cc1)C(=O)C(C(=O)c1ccccc1F)C1OC(=O)c2ccccc21 (configuration not stated)"
systemtested = "UACC-257 melanoma"
assayendpoint = "TGI"
result = "> 100 µM"

[[record]]
molecule = "COC1CC(n2cnc3c(N)ncnc32)OC1CO (configuration not stated)"
systemtested = "UACC-257 melanoma"
assayendpoint = "TGI"
result = "> 100 µM"

